- target entity: human CCR6 (Homo sapiens, UniProt P51684)
- Sequence (P51684 1-374): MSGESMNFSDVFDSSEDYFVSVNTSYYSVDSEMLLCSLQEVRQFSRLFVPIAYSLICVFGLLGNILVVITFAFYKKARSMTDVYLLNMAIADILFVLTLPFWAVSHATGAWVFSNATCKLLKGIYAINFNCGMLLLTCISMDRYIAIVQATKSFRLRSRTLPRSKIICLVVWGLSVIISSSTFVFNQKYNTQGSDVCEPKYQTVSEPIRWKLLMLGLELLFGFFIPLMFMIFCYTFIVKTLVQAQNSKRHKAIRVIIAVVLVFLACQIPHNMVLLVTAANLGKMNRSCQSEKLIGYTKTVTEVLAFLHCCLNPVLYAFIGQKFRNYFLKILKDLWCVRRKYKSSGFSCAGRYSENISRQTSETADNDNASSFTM
- experimental details: Migration assay (chemotaxis, ChemoTX)
- condition parameters: hCCR6-transfected Ba/F3 cells in human serum, migration to recombinant human CCL20 10 nM, 37° C. 45 minutes; read-out: Potency (IC50 value in the migration assay)
test readout: IC50

Recorded IC50, per entry:
> print(dat)
                           smiles.structure      result
1  O=S(=O)(c1ccc(-c2ccc(N3CCCCC3)nc2)cc1)N1CC[C@@H](Nc2ccc(C(F)(F)F)cn2)[C@@H](O)C1  1 to 10 nM
2  O=C1Cc2ccc(-c3ccc(S(=O)(=O)N4CC[C@@H](Nc5ccc(C(F)(F)F)cn5)[C@@H](O)C4)cc3)cc2N1      < 1 nM
3  O=S(=O)(c1ccc(-c2cnc3[nH]ccc3c2C(F)(F)F)cc1)N1CC[C@@H](Nc2ccc(C(F)(F)F)cn2)[C@@H](O)C1      < 1 nM
4  COC1CN(c2ccc(-c3ccc(S(=O)(=O)N4CC[C@@H](Nc5ccc(C(F)(F)F)cn5)[C@@H](O)C4)cc3)cn2)C1  1 to 10 nM
5  O=S(=O)(c1ccc(-c2cnc3[nH]nc(-c4ncc[nH]4)c3c2)cc1)N1CC[C@@H](Nc2ccc(C(F)(F)F)cn2)[C@@H](O)C1      < 1 nM

## Input Which IC50 is reported with human CCR6 (Homo sapiens, UniProt P51684) for this entry: Cc1cc(-c2ccc(S(=O)(=O)N3CC[C@@H](Nc4ccc(C(F)(F)F)cn4)[C@@H](O)C3)cc2)cc2c(C#N)nn(C)c12 ?
## Output < 1 nM

## Input Which IC50 is reported with human CCR6 (Homo sapiens, UniProt P51684) for this entry: CN(C)CCN(C)c1cc(-c2ccc(S(=O)(=O)N3CC[C@@H](Nc4ccc(C(F)(F)F)cn4)[C@@H](O)C3)cc2)ccn1 ?
## Output < 1 nM

## Input Which IC50 is reported with human CCR6 (Homo sapiens, UniProt P51684) for this entry: Nc1cncc(-c2ccc(S(=O)(=O)N3CC[C@@H](Nc4ccc(C(F)(F)F)cn4)[C@@H](O)C3)cc2)c1 ?
## Output < 1 nM

## Input Which IC50 is reported with human CCR6 (Homo sapiens, UniProt P51684) for this entry: Cc1nnc(-c2cc(-c3ccc(S(=O)(=O)N4CC[C@@H](Nc5ccc(C(F)(F)F)cn5)[C@@H](O)C4)cc3)ccn2)o1 ?
## Output < 1 nM

## Input Which IC50 is reported with human CCR6 (Homo sapiens, UniProt P51684) for this entry: O=C1NCC[C@H]1Nc1ccc(-c2ccc(S(=O)(=O)N3CC[C@@H](Nc4ccc(C(F)(F)F)cn4)[C@@H](O)C3)cc2)cn1 ?
## Output < 1 nM

## Input Which IC50 is reported with human CCR6 (Homo sapiens, UniProt P51684) for this entry: COc1cc(-c2ccc(S(=O)(=O)N3CC[C@@H](Nc4ccc(C(F)(F)F)cn4)[C@@H](O)C3)cc2)cc2c1NC(=O)C2 ?
## Output < 1 nM

====

- target entity: human CCR6 (Homo sapiens)
- Sequence (P51684 1-374): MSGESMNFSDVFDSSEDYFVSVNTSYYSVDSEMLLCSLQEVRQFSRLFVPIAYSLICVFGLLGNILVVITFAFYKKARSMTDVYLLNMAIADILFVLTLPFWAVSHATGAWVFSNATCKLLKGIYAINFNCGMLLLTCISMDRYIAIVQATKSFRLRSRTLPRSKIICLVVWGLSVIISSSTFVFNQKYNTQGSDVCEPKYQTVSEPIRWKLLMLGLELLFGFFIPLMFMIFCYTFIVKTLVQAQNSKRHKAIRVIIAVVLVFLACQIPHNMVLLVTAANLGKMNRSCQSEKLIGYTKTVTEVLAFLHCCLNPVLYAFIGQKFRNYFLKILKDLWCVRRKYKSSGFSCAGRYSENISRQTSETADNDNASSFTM
- experimental details: Migration assay (chemotaxis, ChemoTX)
- condition parameters: hCCR6-transfected Ba/F3 cells in human serum, migration to recombinant human CCL20 10 nM, 37° C. 45 minutes; read-out: Potency (IC50 value in the migration assay)
test readout: IC50

Recorded IC50, per entry:
> print(dat)
                           smiles.structure              target.entity  test.readout      result
1  NC(=O)c1cc(-c2ccc(S(=O)(=O)N3CC[C@@H](Nc4ccc(C(F)(F)F)cn4)[C@@H](O)C3)cc2)cnc1N  human CCR6 (Homo sapiens)          IC50      < 1 nM
2  O=S(=O)(c1ccc(-c2cnc3[nH]ccc3c2Cl)cc1)N1CC[C@@H](Nc2ccc(C(F)(F)F)cn2)[C@@H](O)C1  human CCR6 (Homo sapiens)          IC50      < 1 nM
3  CN(C)C1CCN(c2cc(-c3ccc(S(=O)(=O)N4CC[C@@H](Nc5ccc(C(F)(F)F)cn5)[C@@H](O)C4)cc3)ccn2)CC1  human CCR6 (Homo sapiens)          IC50  1 to 10 nM
4  O=C1Nc2ncc(-c3ccc(S(=O)(=O)N4CC[C@@H](Nc5ccc(C(F)(F)F)cn5)[C@@H](O)C4)cc3)cc2C12CC2  human CCR6 (Homo sapiens)          IC50      < 1 nM
5  O=S(=O)(c1ccc(-c2cnnc(N3CCOCC3)c2)cc1)N1CC[C@@H](Nc2ccc(C(F)(F)F)cn2)[C@@H](O)C1  human CCR6 (Homo sapiens)          IC50      < 1 nM

## Input Entry O=S(=O)(c1ccc(-c2ccncc2CO)cc1)N1CC[C@@H](Nc2ccc(C(F)(F)F)cn2)[C@@H](O)C1 has what IC50?
## Output 1 to 10 nM

## Input Entry O=S(=O)(c1ccc(-c2ccc(N3CCOCC3)nc2)cc1)N1CC[C@@H](Nc2ccc(C(F)(F)F)cn2)[C@@H](O)C1 has what IC50?
## Output < 1 nM

## Input Entry CN(C)[C@H]1C[C@@H](Nc2ccc(-c3ccc(S(=O)(=O)N4CC[C@@H](Nc5ccc(C(F)(F)F)cn5)[C@@H](O)C4)cc3)cn2)C1 has what IC50?
## Output < 1 nM

## Input Entry O=S(=O)(c1ccc(-c2ccc(N3CC[C@@H](O)C3)nc2)cc1)N1CC[C@@H](Nc2ccc(C(F)(F)F)cn2)[C@@H](O)C1 has what IC50?
## Output < 1 nM

## Input Entry Cc1cnc(C(N)=O)cc1-c1ccc(S(=O)(=O)N2CC[C@@H](Nc3ccc(C(F)(F)F)cn3)[C@@H](O)C2)cc1 has what IC50?
## Output < 1 nM

## Input Entry Cc1noc(-c2cc(-c3ccc(S(=O)(=O)N4CC[C@@H](Nc5ccc(C(F)(F)F)cn5)[C@@H](O)C4)cc3)ccn2)n1 has what IC50?
## Output 1 to 10 nM

## Input Entry O=S(=O)(c1ccc(-c2ccnc(N3CCCC3)c2)cc1)N1CC[C@@H](Nc2ccc(C(F)(F)F)cn2)[C@@H](O)C1 has what IC50?
## Output < 1 nM

## Input Entry O=C(O)c1cc(-c2ccc(S(=O)(=O)N3CC[C@@H](Nc4ccc(C(F)(F)F)cn4)[C@@H](O)C3)cc2)ccn1 has what IC50?
## Output 10 to 1000 nM

====

// values below are reported IC50
- target entity: human CCR6 (Homo sapiens, UniProt P51684)
- experimental details: Migration assay (chemotaxis, ChemoTX)
- condition parameters: hCCR6-transfected Ba/F3 cells in human serum, migration to recombinant human CCL20 10 nM, 37° C. 45 minutes; read-out: Potency (IC50 value in the migration assay)

> print(dat)
                                   compound  result
1  CNC(=O)N1Cc2cc(-c3ccc(S(=O)(=O)N4CC[C@@H](Nc5ccc(C(F)(F)F)cn5)[C@@H](O)C4)cc3)cc(C)c2C1 [Compound 188]  < 1 nM
2  Cc1c(-c2ccc(S(=O)(=O)N3CC[C@@H](Nc4ccc(C#N)cn4)[C@@H](O)C3)cc2)cnc2[nH]ccc12 [Example 33]  < 1 nM
3  COc1cc(-c2ccc(S(=O)(=O)N3CC[C@@H](Nc4ccc(C(F)(F)F)cn4)[C@@H](O)C3)cc2)cc2cn[nH]c12 [Example 21]  < 1 nM
4  O=S(=O)(c1ccc(-c2cnc3[nH]ccc3c2F)cc1)N1CC[C@@H](Nc2ccc(C(F)(F)F)cn2)[C@@H](O)C1 [Compound 119]  < 1 nM
5  CNC(=O)c1cc(-c2ccc(S(=O)(=O)N3CC[C@@H](Nc4ccc(C(F)(F)F)cn4)[C@@H](O)C3)cc2)ccn1 [Example 50]  < 1 nM
6  Cc1cc(-c2ccc(S(=O)(=O)N3CC[C@@H](Nc4ccc(C(F)(F)F)cn4)[C@@H](O)C3)cc2)ccn1 [Compound 163]  < 1 nM

## Input Which IC50 is reported with human CCR6 (Homo sapiens, UniProt P51684) for this entry: NC(=O)c1ncc(-c2ccc(S(=O)(=O)N3CC[C@@H](Nc4ccc(C(F)(F)F)cn4)[C@@H](O)C3)cc2)s1 [Example 42] ?
## Output < 1 nM

## Input Which IC50 is reported with human CCR6 (Homo sapiens, UniProt P51684) for this entry: COc1c(-c2ccc(S(=O)(=O)N3CC[C@@H](Nc4ccc(C(F)(F)F)cn4)[C@@H](O)C3)cc2)ccnc1C(N)=O [Compound 182] ?
## Output < 1 nM

## Input Which IC50 is reported with human CCR6 (Homo sapiens, UniProt P51684) for this entry: NC(=O)c1cc(-c2ccc(S(=O)(=O)N3CC[C@@H](Nc4ccc(C(F)(F)F)cn4)[C@@H](O)C3)cc2)ccn1 [Example 31] ?
## Output < 1 nM

## Input Which IC50 is reported with human CCR6 (Homo sapiens, UniProt P51684) for this entry: O=S(=O)(c1ccc(-c2ccnc(N3CC[C@H](O)C3)c2)cc1)N1CC[C@@H](Nc2ccc(C(F)(F)F)cn2)[C@@H](O)C1 [Compound 133] ?
## Output < 1 nM

## Input Which IC50 is reported with human CCR6 (Homo sapiens, UniProt P51684) for this entry: NC(=O)c1ccc(-c2ccc(S(=O)(=O)N3CC[C@@H](Nc4ccc(C(F)(F)F)cn4)[C@@H](O)C3)cc2)cn1 [Example 28] ?
## Output < 1 nM

## Input Which IC50 is reported with human CCR6 (Homo sapiens, UniProt P51684) for this entry: Cc1cnc(CO)c(C)c1-c1ccc(S(=O)(=O)N2CC[C@@H](Nc3ccc(C(F)(F)F)cn3)[C@@H](O)C2)cc1 [Compound 205] ?
## Output 1 to 10 nM

## Input Which IC50 is reported with human CCR6 (Homo sapiens, UniProt P51684) for this entry: O=C1CNCCN1c1cc(-c2ccc(S(=O)(=O)N3CC[C@@H](Nc4ccc(C(F)(F)F)cn4)[C@@H](O)C3)cc2)ccn1 [Compound 88] ?
## Output 1 to 10 nM
